Each entry below carries its reported Ki.
- systemName: glucocorticoid receptors (Homo sapiens)
- assayProcedure: Glucocorticoid receptor binding displacement assay with 3H-dexamethasone
- Design: This GR was a full-length steroid hormone receptor; host or cells: recombinant baculovirus-infected insect cells
- conditionSummary: Ki from IC50 by Cheng-Prusoff; 2.5 nM 3H-dexamethasone; read-out: GR Binding
quantityMeasured: Ki

compound="COc1ccc(CC23Cc4cnn(-c5ccc(F)cc5)c4C=C2CCN(Cc2ccccc2)C3)cc1 (stereo not shown) [drawing 260]" measured="< 10 nM"
compound="Fc1ccc(-n2ncc3c2C=C2CCN(Cc4ccncc4)CC2(Cc2ccccc2)C3)cc1 (stereo not shown)" measured="10 to 100 nM"
compound=Cc1ccc(-n2ncc3c2C=C2CCN(S(=O)(=O)c4ccc(C(C)(C)C)cc4)C[C@@]2(Cc2ccccc2)C3)cc1 measured="< 10 nM"
compound="CC(C)(C)c1ccc(S(=O)(=O)N2CCC3=Cc4c(cnn4Cc4ccccc4)CC3(Cc3ccccc3)C2)cc1 (stereo not shown) [drawing 237]" measured="< 10 nM"

* * *

- systemName: glucocorticoid receptors (Homo sapiens, UniProt P04150)
- Sequence (P04150 whole entry): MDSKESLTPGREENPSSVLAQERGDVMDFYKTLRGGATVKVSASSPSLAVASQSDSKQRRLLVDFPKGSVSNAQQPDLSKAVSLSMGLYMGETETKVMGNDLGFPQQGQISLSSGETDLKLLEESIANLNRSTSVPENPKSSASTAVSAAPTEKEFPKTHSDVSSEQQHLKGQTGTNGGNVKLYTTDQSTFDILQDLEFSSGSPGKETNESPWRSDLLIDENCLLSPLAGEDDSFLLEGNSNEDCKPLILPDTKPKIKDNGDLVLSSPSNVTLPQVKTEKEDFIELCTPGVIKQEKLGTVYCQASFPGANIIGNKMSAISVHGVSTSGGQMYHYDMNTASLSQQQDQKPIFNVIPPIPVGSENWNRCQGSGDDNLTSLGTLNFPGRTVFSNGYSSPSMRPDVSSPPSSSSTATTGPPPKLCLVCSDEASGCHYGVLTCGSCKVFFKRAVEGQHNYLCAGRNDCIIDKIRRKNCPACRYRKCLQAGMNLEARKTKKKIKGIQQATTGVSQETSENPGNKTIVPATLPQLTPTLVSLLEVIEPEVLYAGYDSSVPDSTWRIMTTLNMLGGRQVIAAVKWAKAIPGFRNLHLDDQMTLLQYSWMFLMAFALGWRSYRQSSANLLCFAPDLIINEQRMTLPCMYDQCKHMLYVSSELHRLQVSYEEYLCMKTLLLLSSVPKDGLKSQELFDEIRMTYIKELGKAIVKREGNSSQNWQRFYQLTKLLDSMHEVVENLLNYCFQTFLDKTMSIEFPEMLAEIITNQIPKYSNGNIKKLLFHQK
- assayProcedure: GR functional assay using SW1353/MMTV-5 cells (dexamethasone-induced luciferase)
- Type: cell-based
- Design: contains endogenous glucocorticoid receptors; endogenous in cells; host or cells: SW1353/MMTV-5 (human chondrosarcoma, stably carrying the pMAMneo-Luc reporter)
- conditionSummary: SW1353/MMTV-5 cells, antagonism of 50 nM dexamethasone, luciferase; read-out: GR Functional
Each entry below carries its reported Ki.
quantityMeasured: Ki

compound="CC(C)(C)c1ccc(S(=O)(=O)N2CCC3=Cc4[nH]ncc4CC3(Cc3ccccc3)C2)cc1 (stereo not drawn) [drawing 229]" systemname="glucocorticoid receptors (Homo sapiens, UniProt P04150)" quantitymeasured=Ki measured="0.01 to 0.1 µM"
compound="Fc1ccc(-n2ncc3c2C=C2CCN(Cc4ccccc4)CC2(Cc2ccccc2)C3)cc1 (stereo not drawn) [drawing 258]" systemname="glucocorticoid receptors (Homo sapiens, UniProt P04150)" quantitymeasured=Ki measured="> 0.1 µM"
compound="CC(C)(C)c1ccc(S(=O)(=O)N2CCC3=Cc4c(cnn4-c4ccc(S(N)(=O)=O)cc4)CC3(Cc3ccccc3)C2)cc1 (stereo not drawn) [drawing 256]" systemname="glucocorticoid receptors (Homo sapiens, UniProt P04150)" quantitymeasured=Ki measured="> 0.1 µM"

* * *

Each entry below carries its reported pKi.
- systemName: glucocorticoid receptors (Homo sapiens)
- assayProcedure: GR functional assay using SW1353/MMTV-5 cells (dexamethasone-induced luciferase)
- Type: cell-based
- Design: contains endogenous glucocorticoid receptors; endogenous in cells; host or cells: SW1353/MMTV-5 (human chondrosarcoma, stably carrying the pMAMneo-Luc reporter)
- conditionSummary: read-out: GR Functional
pKi: −log10 of the molar value.
quantityMeasured: pKi

compound=CCOC[C@]12Cc3cnn(-c4ccc(F)cc4)c3C=C1CCN(S(=O)(=O)c1ccc(C(C)(C)C)cc1)C2 systemname="glucocorticoid receptors (Homo sapiens)" measured="> 8.00"
compound="O=C(Nc1ccccc1)N1CCC2=Cc3c(cnn3-c3ccc(F)cc3)CC2(Cc2ccc(F)cc2)C1 (centres unmarked)" systemname="glucocorticoid receptors (Homo sapiens)" measured="7.00 to 8.00"
compound=COC[C@]12Cc3cnn(C(C)C)c3C=C1CCN(S(=O)(=O)c1ccc(C(C)(C)C)cc1)C2 systemname="glucocorticoid receptors (Homo sapiens)" measured="< 7.00"
compound=COc1ccc(-n2ncc3c2C=C2CCN(S(=O)(=O)c4ccc(C(C)(C)C)cc4)C[C@@]2(Cc2ccccc2)C3)cc1 systemname="glucocorticoid receptors (Homo sapiens)" measured="7.00 to 8.00"
compound="CN1CCOc2cc(S(=O)(=O)N3CCC4=Cc5[nH]ncc5CC4(Cc4ccccc4)C3)ccc21 (centres unmarked) [drawing 247]" systemname="glucocorticoid receptors (Homo sapiens)" measured="< 7.00"
compound=CN(C)CC[C@]12Cc3cnn(-c4ccc(F)cc4)c3C=C1CCN(S(=O)(=O)c1ccc(C(C)(C)C)cc1)C2 systemname="glucocorticoid receptors (Homo sapiens)" measured="7.00 to 8.00"
compound=CC(C)(C)c1ccc(S(=O)(=O)N2CCC3=Cc4c(cnn4-c4ccc(F)cc4)C[C@]3(C(=O)NCc3ccccc3)C2)cc1 systemname="glucocorticoid receptors (Homo sapiens)" measured="< 7.00"
compound=CC(C)(C)c1ccc(S(=O)(=O)N2CCC3=Cc4c(cnn4-c4ccc(F)cc4)C[C@]3(CNCCO)C2)cc1 systemname="glucocorticoid receptors (Homo sapiens)" measured="7.00 to 8.00"
